- Test system: C. albicans (ATCC 10231)
- assay.explanation: In vitro antifungal CFU assay
- Assay type: cell-based, Candida albicans
- assay.conditions: peptide 0.032 mg/mL + CuCl2 (0.9:1), 3 h, pH 5.4; per 0.1 mL
Residues, ends and D or L forms follow the SMILES beside them.
parameter: mean CFU number ± S.D. (CFU)

| compound | parameter | measured.result |
| --- | --- | --- |
| CC[C@H](C)[C@H](NC(=O)[C@H](C)NC(=O)[C@@H](N)C(C)C)C(=O)N[C@@H](C)C(=O)N[C@@H](CC(C)C)C(=O)N[C@@H](CCCCN)C(=O)N[C@@H](C)C(=O)N[C@@H](C)C(=O)N[C@@H](Cc1c[nH]cn1)C(=O)N[C@@H](Cc1ccc(O)cc1)C(=O)N[C@@H](Cc1c[nH]cn1)C(=O)N[C@H](C(=O)N[C@@H](Cc1c[nH]cn1)C(=O)N[C@@H](CCCCN)C(=O)N[C@@H](CCC(=O)O)C(N)=O)[C@@H](C)O [L3, VAIALKAAHYHTHKE-NH2] (H-VAIALKAAHYHTHKE-NH2) | mean CFU number ± S.D. | 187 |
| CC[C@H](C)[C@H](NC(=O)[C@H](C)NC(=O)[C@@H](NC(C)=O)C(C)C)C(=O)N[C@@H](C)C(=O)N[C@@H](CC(C)C)C(=O)N[C@@H](CCCCN)C(=O)N[C@@H](C)C(=O)N[C@@H](C)C(=O)N[C@@H](Cc1c[nH]cn1)C(=O)N[C@@H](Cc1ccc(O)cc1)C(=O)N[C@@H](Cc1c[nH]cn1)C(=O)N[C@H](C(=O)N[C@@H](Cc1c[nH]cn1)C(=O)N[C@@H](CCCCN)C(=O)N[C@@H](CCC(=O)O)C(=O)O)[C@@H](C)O [L1, Ac-VAIALKAAHYHTHKE] (Ac-VAIALKAAHYHTHKE-OH) | mean CFU number ± S.D. | 40 |
| CC[C@H](C)[C@H](NC(=O)[C@H](C)NC(=O)[C@@H](N)C(C)C)C(=O)N[C@@H](C)C(=O)N[C@@H](CC(C)C)C(=O)N[C@@H](CCCCN)C(=O)N[C@@H](C)C(=O)N[C@@H](C)C(=O)N[C@@H](Cc1c[nH]cn1)C(=O)N[C@@H](Cc1ccc(O)cc1)C(=O)N[C@@H](Cc1c[nH]cn1)C(=O)N[C@H](C(=O)N[C@@H](Cc1c[nH]cn1)C(=O)N[C@@H](CCCCN)C(=O)N[C@@H](CCC(=O)O)C(=O)O)[C@@H](C)O [WT, VAIALKAAHYHTHKE, reference compound] (H-VAIALKAAHYHTHKE-OH) | mean CFU number ± S.D. | 74 |

---

- Tested on: C. albicans (ATCC 10231)
- assay.explanation: In vitro antifungal CFU assay
- Assay type: cell-based, Candida albicans
- assay.conditions: peptide 0.032 mg/mL + CuCl2 (0.9:1), 3 h, pH 5.4; per 0.1 mL
Residues, ends and D or L forms follow the SMILES beside them.
parameter: mean CFU number ± S.D. (CFU)

| molecule | system.under.test | parameter | measured.result |
| --- | --- | --- | --- |
| CC[C@H](C)[C@H](NC(=O)[C@H](C)NC(=O)[C@@H](NC(C)=O)C(C)C)C(=O)N[C@@H](C)C(=O)N[C@@H](CC(C)C)C(=O)N[C@@H](CCCCN)C(=O)N[C@@H](C)C(=O)N[C@@H](C)C(=O)N[C@@H](Cc1c[nH]cn1)C(=O)N[C@@H](Cc1ccc(O)cc1)C(=O)N[C@@H](Cc1c[nH]cn1)C(=O)N[C@H](C(=O)N[C@@H](Cc1c[nH]cn1)C(=O)N[C@@H](CCCCN)C(=O)N[C@@H](CCC(=O)O)C(N)=O)[C@@H](C)O [L2, Ac-VAIALKAAHYHTHKE-NH2] (Ac-VAIALKAAHYHTHKE-NH2) | C. albicans (ATCC 10231) | mean CFU number ± S.D. | 153 |
